The reported measurements were obtained from patent US10414718B2.

target: κ opioid receptor (Homo sapiens, UniProt P41145); assay: FLIPR intracellular calcium signal test, HEK293-κ cells; conditions: IC50 (inhibition) test against EC80 of positive agonist, read-out: Kapp receptor IC50
Sequence (P41145 whole entry): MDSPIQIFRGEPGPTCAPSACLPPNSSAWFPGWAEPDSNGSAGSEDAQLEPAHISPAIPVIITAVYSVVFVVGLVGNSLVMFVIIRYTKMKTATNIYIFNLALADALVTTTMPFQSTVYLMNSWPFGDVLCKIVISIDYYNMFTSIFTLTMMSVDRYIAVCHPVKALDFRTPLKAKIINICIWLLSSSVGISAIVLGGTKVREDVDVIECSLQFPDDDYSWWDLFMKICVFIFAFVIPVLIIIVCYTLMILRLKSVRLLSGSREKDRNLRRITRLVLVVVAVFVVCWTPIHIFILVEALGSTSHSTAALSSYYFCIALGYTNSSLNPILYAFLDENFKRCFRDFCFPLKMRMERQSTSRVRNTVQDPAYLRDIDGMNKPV
Give measured IC50 for each item. Keep answers brief.

Some compounds with known IC50 results, for comparison:
{"Compound": "CC12CCCCCC(Cc3cc(C4CC4)c(O)cc31)C2N (stereo not drawn) [Compound 15]", "Experimental System": "κ opioid receptor (Homo sapiens, UniProt P41145)", "IC50": "> 100 µM"}
{"Compound": "CC12CCCCCC(Cc3cc(C#N)c(O)cc31)C2N (stereo not drawn) [Compound 19]", "Experimental System": "κ opioid receptor (Homo sapiens, UniProt P41145)", "IC50": "> 100 µM"}
{"Compound": "C[C@]12CCCCC[C@H](Cc3c(F)cc(O)cc31)[C@@H]2N [Compound 22]", "Experimental System": "κ opioid receptor (Homo sapiens, UniProt P41145)", "IC50": "1 to 10 µM"}
{"Compound": "CC12CCCCCC(Cc3c(O)cc(O)cc31)C2N (stereo not drawn) [Compound 27]", "Experimental System": "κ opioid receptor (Homo sapiens, UniProt P41145)", "IC50": "10 to 100 µM"}
{"Compound": "CC12CCCCCC(Cc3c(Cl)cc(O)cc31)C2N (stereo not drawn) [Compound 3]", "Experimental System": "κ opioid receptor (Homo sapiens, UniProt P41145)", "IC50": "0.1 to 1 µM"}

Kindly review the next compound as well.
Any idea what its IC50 is? The compound is Cc1cc2c(cc1O)C1(C)CCCCCC(C2)C1N (stereo not drawn) [Compound 14]
10 to 100 µM
